Origin of values: ChEMBL document CHEMBL3301550

# System: Plasmodium falciparum
# protocolDetails: MMV: 3H-Hyoxanthine uptake assay; RPMI 1640 (Invitrogen cat#11875-093) with Sodium Bicarbonate (NaHCO3) […].
# Assay type: functional, organism-based
# conditionNotes: 3D7
readout: IC50

COc1ccc(C2=C(c3ccc(OC)cc3)C3(c4ccccc4)C(=O)C2(c2ccccc2)C2C(=O)N(c4ccc(C)cc4)C(=O)C23)cc1 (stereo not drawn)	> 1000 nM

Ask | I have this molecule here, "COc1cc(OC)c(N(C)C(=O)c2cc3c(s2)-c2ccccc2S(=O)(=O)C3)cc1Cl" , and I need its recorded IC50.
Reply | > 500 nM

Ask | Would you mind telling me what IC50 value was observed for "Cc1ccc(Nc2nc(-c3ccccn3)cs2)cc1" ?
Reply | > 1000 nM

Ask | IC50 for "COc1ccc(-n2ccnc2SCC(=O)Nc2cc(C)ccc2C)c(OC)c1" ?
Reply | > 1000 nM

Ask | For the molecule shown here, O=C(O)C1Cc2c([nH]c3ccccc23)C(c2ccc(Cl)cc2Cl)N1 (stereo not drawn) , give the reported IC50.
Reply | > 1000 nM

Ask | Consider the molecule shown here: "Cc1ccc(-c2cc3c(nn2)-c2ccccc2C3=O)cc1" What is its recorded IC50?
Reply | > 500 nM

Ask | Which IC50 is listed for "COc1ccc(-c2nc3cc(Cc4ccc5[nH]c(-c6ccc(OC)cc6)nc5c4)ccc3[nH]2)cc1" ?
Reply | > 1000 nM

Ask | Entry CSC1=NC(=Nc2c(C)cccc2C)C2(CCC(C(C)(C)C)CC2)N1c1ccc(Cl)cc1 (stereo not drawn) : reported IC50 = ?
Reply | > 1000 nM

Ask | Record request: IC50 value, item "Oc1ccccc1CNCC12CC3CC(CC(C3)C1)C2"
Reply | 104 nM

Ask | Name the recorded IC50 for CCN1CCCC1CNc1[nH]cnc2c3cc(Cl)ccc3nc1-2 (stereo not drawn) .
Reply | > 1000 nM

Ask | Given the molecule COc1ccc(NC(=O)C2c3ccccc3C(=O)N(CC(C)C)C2c2cccs2)cc1 (stereo not drawn) , what is its reported IC50?
Reply | 262 nM

Ask | Which IC50 value belongs to CCCCCC(=O)N1c2ccccc2N=C2CC(c3ccc(OC)c(OC)c3)CC(O)=C2C1c1ccc(C(F)(F)F)cc1 (stereo not drawn) ?
Reply | 129 nM

Ask | Suppose we examine the molecule C=CC12CCN(CC1)C(C(O)c1ccnc3ccc(OC)cc13)C2 (stereo not drawn) ; what IC50 value has been reported?
Reply | 21 nM
